assayDetails: Antioxidant activity assessed as DPPH radical scavenging activity after 30 mins
Type: functional
assayReadout: IC50 (µM)
Answers are plain numbers, in µM.

Guide cases for IC50, answers given:
givensmiles=COc1cc(CN(Cc2ccccc2)Cc2cc(OC)c(O)c(OC)c2)cc(OC)c1O unitname=µM testvalue=15.4
givensmiles=COc1cc(CN(CCCCCCO)Cc2ccc(O)c(OC)c2)ccc1O unitname=µM testvalue=22.2
givensmiles=COc1cc(/C=N/Cc2ccccc2)ccc1O unitname=µM testvalue=248
givensmiles=COc1cc(CN(CCCO)Cc2ccc(O)c(OC)c2)ccc1O unitname=µM testvalue=13.7
givensmiles=COc1cc(CN(CCO)Cc2ccc(O)c(OC)c2)ccc1O unitname=µM testvalue=12.8
givensmiles=COc1cc(CNCc2ccccc2)ccc1O unitname=µM testvalue=107
givensmiles=COc1cc(CN(CCCCO)Cc2ccc(O)c(OC)c2)ccc1O unitname=µM testvalue=21
givensmiles=c1ccc(CN(Cc2ccccc2)c2ccc(N(Cc3ccccc3)Cc3ccccc3)cc2)cc1 unitname=µM testvalue=144

Dear colleague, could you please provide IC50 for the compounds listed below?
1. COc1cc(C=O)cc(OC)c1O
2. COc1cc(CN(Cc2ccc(O)c(OC)c2)[C@H]2CC[C@H](N(Cc3ccc(O)c(OC)c3)Cc3ccc(O)c(OC)c3)CC2)ccc1O
3. COc1cc(CN(CCCCCO)Cc2ccc(O)c(OC)c2)ccc1O
4. COc1cc(CN(Cc2ccccc2)Cc2ccc(O)c(OC)c2)ccc1O
5. COc1cc(CN(Cc2ccc(O)c(OC)c2)c2ccc(N(Cc3ccc(O)c(OC)c3)Cc3ccc(O)c(OC)c3)cc2)ccc1O

output:
1: 1150; 2: 138; 3: 24; 4: 29.7; 5: 5.8

Dear colleague, could you please provide IC50 for the compounds listed below?
1. CCCCN(Cc1ccc(O)c(OC)c1)Cc1ccc(O)c(OC)c1
2. Oc1ccc(CN(Cc2ccc(O)cc2)c2ccc(N(Cc3ccc(O)cc3)Cc3ccc(O)cc3)cc2)cc1

output:
1: 21.9; 2: 98

Dear colleague, could you please provide IC50 for the compounds listed below?
1. COc1cc(CN(CCCO)Cc2cc(OC)c(O)c(OC)c2)cc(OC)c1O
2. COc1cc(C=O)ccc1O

output:
1: 12.3; 2: 4050

====

Can you tell me Activity for the items I'm about to list?
assayDetails: Antioxidant activity assessed as trolox equivalents of AAPH-induced radical scavenging activity pretreated for 30 mins followed by […] challenge measured every 2 mins for 2 hrs by ORAC-FL assay
Assay type: functional
One number for each entry, in equiv.

Guide cases for Activity, answers given:
givensmiles=COc1cc(C=O)cc(OC)c1O assayreadout=Activity unitname=equiv testvalue=1.45
givensmiles=COc1cc(CN(CCCN)Cc2ccc(O)c(OC)c2)ccc1O assayreadout=Activity unitname=equiv testvalue=4.08
givensmiles=COc1cc(CN(CCCO)Cc2ccc(O)c(OC)c2)ccc1O assayreadout=Activity unitname=equiv testvalue=6.02
givensmiles=COc1cc(CN(Cc2ccc(O)c(OC)c2)c2ccc(N(Cc3ccc(O)c(OC)c3)Cc3ccc(O)c(OC)c3)cc2)ccc1O assayreadout=Activity unitname=equiv testvalue=20.4
givensmiles=COc1cc(CN(CCCN(Cc2ccc(O)c(OC)c2)Cc2ccc(O)c(OC)c2)Cc2ccc(O)c(OC)c2)ccc1O assayreadout=Activity unitname=equiv testvalue=7.54
givensmiles=COc1cc(CN(Cc2ccccc2)Cc2ccc(O)c(OC)c2)ccc1O assayreadout=Activity unitname=equiv testvalue=5.34
givensmiles=COc1cc(CNCc2ccccc2)ccc1O assayreadout=Activity unitname=equiv testvalue=3.16
givensmiles=COc1cc(/C=N/Cc2ccccc2)ccc1O assayreadout=Activity unitname=equiv testvalue=1.85

input: Look up Activity for this compound: `COc1cc(C=O)ccc1O`
output: 2.19

====

Can you tell me pIC50 for the items I'm about to list?
Tested on: DNA
assayDetails: Antioxidant activity assessed as protection against AAPH-induced DNA damage in Escherichia coli plasmid pbr322 DNA after 1 hr by agarose gel electrophoresis method
Format: functional
Answers are plain numbers, as −log10 of the molar value.

Guide cases for pIC50, answers given:
givensmiles=COc1cc(C=O)cc(OC)c1O testvalue=5.02
givensmiles=COc1cc(CN(Cc2ccc(O)c(OC)c2)c2ccc(N(Cc3ccc(O)c(OC)c3)Cc3ccc(O)c(OC)c3)cc2)ccc1O testvalue=6.22
givensmiles=COc1cc(CN(CCCO)Cc2ccc(O)c(OC)c2)ccc1O testvalue=5.44
givensmiles=COc1cc(/C=N/Cc2ccccc2)ccc1O testvalue=5.42
givensmiles=COc1cc(C=O)ccc1O testvalue=5.25

Dear colleague, could you please provide pIC50 for the compounds listed below?
1. COc1cccc(CN(Cc2cccc(OC)c2)c2ccc(N(Cc3cccc(OC)c3)Cc3cccc(OC)c3)cc2)c1
2. COc1cc(CNCc2ccccc2)ccc1O
3. COc1cc(CN(CCCN(Cc2ccc(O)c(OC)c2)Cc2ccc(O)c(OC)c2)Cc2ccc(O)c(OC)c2)ccc1O
4. COc1cc(CN(Cc2ccccc2)Cc2ccc(O)c(OC)c2)ccc1O
5. COc1cc(CN(CCCN)Cc2ccc(O)c(OC)c2)ccc1O

output:
1. 4.87
2. 5.39
3. 4.86
4. 5.42
5. 4.21

Where these numbers come from: ChEMBL document CHEMBL4251590
